# Assay System: mu receptor (Rattus norvegicus, UniProt P33535)
# Construct: rat whole brain minus cerebellum for mu was homogenized; from tissue; host or cells: brain of male Sprague Dawley rats, whole brain minus cerebellum, homogenate fraction
# Sequence (P33535 whole entry): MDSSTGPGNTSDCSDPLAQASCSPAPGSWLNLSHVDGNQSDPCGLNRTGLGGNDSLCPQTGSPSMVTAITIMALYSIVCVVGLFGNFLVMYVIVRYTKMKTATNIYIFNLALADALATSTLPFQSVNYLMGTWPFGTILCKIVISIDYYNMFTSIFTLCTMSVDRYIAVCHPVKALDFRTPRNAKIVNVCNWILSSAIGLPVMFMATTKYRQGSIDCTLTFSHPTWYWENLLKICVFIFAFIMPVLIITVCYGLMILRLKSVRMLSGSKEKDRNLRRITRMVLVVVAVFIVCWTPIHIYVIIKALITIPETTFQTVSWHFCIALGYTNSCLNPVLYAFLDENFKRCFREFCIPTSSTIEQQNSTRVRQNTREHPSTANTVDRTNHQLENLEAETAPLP
# Protocol Text: opioid receptor binding assay, [3H] NAL (tritiated naloxone), mu receptor
# Set-up: species or system rat (Male Sprague Dawley), brain minus cerebellum
Counter-ions that a name gives are not always drawn.
hey, just use 1.0 if measured Ki is less than 1 nM, otherwise 0.0

Worked set:
C[C@H]1CN(CCC(C(=O)NCC(N)=O)C2CCCCC2)CC[C@@]1(C)c1cccc(O)c1 (relative stereo) [Example 20, hydrochloride monohydrate]: 1.0
CCCNC(=O)CNC(=O)C(Cc1ccccc1)CN1CC[C@@](C)(c2cccc(O)c2)[C@@H](C)C1 (stereo partly drawn) [Example 49, monohydrate hydrochloride]: 1.0
C[C@H]1CN(CCC(C(=O)O)C2CCCCC2)CC[C@@]1(C)c1cccc(O)c1 (relative stereo) [Example 9B, hydrochloride]: 1.0
CCNC(=O)CNC(=O)CNC(=O)C(Cc1ccccc1)CN1CC[C@@](C)(c2cccc(O)c2)[C@@H](C)C1 (relative stereo) [Example 77]: 0.0

In plain terms, does CCOC(=O)CCCNC(=O)C(CCN1CC[C@@](C)(c2cccc(O)c2)[C@@H](C)C1)C1CCCCC1 (relative stereo) [Example 23, monohydrochloride monohydrate] come in under 1 nM for Ki? 0.0

In plain terms, does C[C@H]1CN(CCC(C(=O)NCCC(=O)O)C2CCCCC2)CC[C@@]1(C)c1cccc(O)c1 (relative stereo) [Example 26, monohydrate] come in under 1 nM for Ki? 0.0

In plain terms, does C[C@H]1CN(CC(CC2CCCCC2)C(=O)NCCC(=O)O)CC[C@@]1(C)c1cccc(O)c1 (stereo partly drawn) [Example 35, hydrochloride] come in under 1 nM for Ki? 1.0

In plain terms, does CCOC(=O)CN(C)C(=O)CNC(=O)C(Cc1ccccc1)CN1CC[C@@](C)(c2cccc(O)c2)[C@@H](C)C1 (relative stereo) [Example 75] come in under 1 nM for Ki? 0.0

In plain terms, does C[C@H]1CN(CC(CC2CCCCC2)C(=O)NCC(N)=O)CC[C@@]1(C)c1cccc(O)c1 (relative stereo) [Example 33, monohydrochloride] come in under 1 nM for Ki? 0.0
